Numbers sourced from paper PMC4072508.

Biological target: T1, Mcl-1, Q07820
T1 chain: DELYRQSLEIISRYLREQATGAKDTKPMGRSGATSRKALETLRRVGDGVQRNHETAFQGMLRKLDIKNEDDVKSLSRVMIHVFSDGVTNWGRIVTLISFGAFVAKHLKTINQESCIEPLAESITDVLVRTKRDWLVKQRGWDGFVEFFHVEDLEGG
Experiment: fluorescence polarisation, direct titration of receptor into 10 nM labelled peptide
measureName: pKd
Worth noting: pKd values are minus log10 of concentrations stated in mol/L.

SKFVILSAHKLVFIGDTLSRQAKAAD [BCAR1] | 6.04

Query: What value of pKd has been reported for the following binder? AELRLFLAQRLRWLCDSCPASRATCV [NBEAL2]
Response: 5.42

Query: What value of pKd has been reported for the following binder? FSKREKLVEILRNIGDERTMVFVETK [DDX4]
Response: 6.85
